Assay: Inhibition of factor Xa
pKi: −log10 of the molar value.
valueKind: pKi

Illustrative cases are given below, each with its answer.
N=C(N)c1ccc2c(c1)c(CCO)cn2CC(=O)N1CCC(Cc2ccccc2)CC1    5.62
N=C(N)c1ccc2c(ccn2CC(=O)N2CCC(Cc3ccccc3F)CC2)c1    4.64
COC(=O)Cc1cn(CC(=O)N2CCC(Cc3ccccc3)CC2)c2ccc(C(=N)N)cc12    6.40
N=C(N)c1c[nH]c2cc(S(=O)(=O)N3CCC(Cc4ccccc4)CC3)ccc12    5.48
N=C(N)c1ccc2c(cnn2CC(=O)N2CCC(Cc3ccccc3)CC2)c1    5.54

A: N=C(N)c1ccc2c(ccn2CC(=O)N2CCC(Cc3cccc(F)c3)CC2)c1
B: COC(=O)/C=C/c1cn(CC(=O)N2CCC(Cc3ccccc3)CC2)c2ccc(C(=N)N)cc12
C: N=C(N)c1ccc2c(c1)ncn2CC(=O)N1CCC(Cc2ccccc2)CC1
Query string: Order each entry by recorded pKi, climbing from the minimum. Form entry: ranked labels (order as requested).
Result string: C, A, B

a: N=C(N)c1ccc2c(ccn2CC(=O)N2CCC(C(=O)c3ccccc3)CC2)c1
b: N=C(N)c1ccc2c(ccn2CC(=O)N2CCC(C(O)c3ccccc3)CC2)c1 (configuration not stated)
c: N=C(N)c1ccc2c(c1)c(CC(=O)O)cn2CC(=O)N1CCC(Cc2ccccc2)CC1
Query string: Ordering: ascending pKi. Put the labels in the requested order and write them down.
Result string: b, a, c

---

Molecular target: Prothrombin (Homo sapiens)
pKi: −log10 of the molar value.
valueKind: pKi

N=C(N)c1ccc2c(c1)c(CCO)cn2CC(=O)N1CCC(Cc2ccccc2)CC1    8.15

I: N=C(N)c1ccc2c(ccn2CC(=O)N2CCC(Cc3cccc(F)c3)CC2)c1
II: COC(=O)Cc1cn(CC(=O)N2CCC(Cc3ccccc3)CC2)c2ccc(C(=N)N)cc12
III: N=C(N)c1c[nH]c2cc(S(=O)(=O)N3CCC(Cc4ccccc4)CC3)ccc12
Query string: Please order the records by their reported pKi, lowest number first. Rank the items, then write their labels in that order.
Result string: III, I, II

---

These molecules were tested on Serine protease 1 (Homo sapiens); pKi is the recorded read-out.
Sequence (P07477 whole entry): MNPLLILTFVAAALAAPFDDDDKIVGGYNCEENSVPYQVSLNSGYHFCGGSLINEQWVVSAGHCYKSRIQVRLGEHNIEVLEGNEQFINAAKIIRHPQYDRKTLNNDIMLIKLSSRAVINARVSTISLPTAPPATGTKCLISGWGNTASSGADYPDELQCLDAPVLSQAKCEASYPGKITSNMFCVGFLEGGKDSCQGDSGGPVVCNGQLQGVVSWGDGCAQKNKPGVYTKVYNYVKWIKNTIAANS
pKi: −log10 of the molar value.
valueKind: pKi

A selection of reference data follows.
N=C(N)c1ccc2c(c1)c(CCO)cn2CC(=O)N1CCC(Cc2ccccc2)CC1    6.51
COC(=O)/C=C/c1cn(CC(=O)N2CCC(Cc3ccccc3)CC2)c2ccc(C(=N)N)cc12    6.55

P: CC(=O)N[C@H](Cc1ccccc1)C(=O)N1CCC[C@H]1C(=O)N[C@@H](CCCN=C(N)N)B(O)O
Q: N=C(N)c1c[nH]c2cc(S(=O)(=O)N3CCC(Cc4ccccc4)CC3)ccc12
Query string: Rank P against Q by their pKi values and give the higher one. Respond using the label that marks the chosen record.
Result string: P
(P: 8.05, Q: 5.92)

---

So I've got Ki readings for Serine protease 1 (Homo sapiens, UniProt P07477), take a look.

N=C(N)c1ccc2c(ccn2CC(=O)N2CCC(C(O)c3ccccc3)CC2)c1 (stereo not drawn)    > 15 µM
N=C(N)c1ccc2c(ccn2CC(=O)N2CCC(C(=O)c3ccccc3)CC2)c1    > 15 µM

Query string: Record lookup: for Serine protease 1 (Homo sapiens, UniProt P07477), what Ki belongs to `N=C(N)c1ccc2c(ccn2CC(=O)N2CCC(Cc3ccccc3)CC2)c1` ?
Result string: > 15 µM
